Read-out: Interleukin-6 (IL6), IL6 (gene 3569)
test_summary: BSK_CASM3C_IL6: BioMAP Diversity Plus: CASM3C Assay for Interleukin-6 (IL6) Biomarker Activity for (AID 2283040)
measurement_parameters: primary human coronary artery smooth muscle cells; actives raise or lower the signal
Activity calls are given as the source filed them. How the source made its calls: active means hit-call score of the fitted dose curve at least 0.9, where 1 is the maximum; inactive means score below 0.9.
Respond using exactly one of the listed classes: active, inactive

Take a look at these entries with their results.
Challenge: Field: outcome | Entry: COC(=O)Nc1nc2ccccc2[nH]1
Response given: inactive

Challenge: Field: outcome | Entry: CC(C)(C)OOC(=O)c1ccccc1
Response given: inactive

Challenge: Field: outcome | Entry: Clc1ccc(C(c2ccc(Cl)cc2)C(Cl)(Cl)Cl)cc1
Response given: inactive

Challenge: Field: outcome | Entry: CCCCOC(=O)c1ccccc1C(=O)OCc1ccccc1
Response given: inactive

Challenge: Field: outcome | Entry: CC(C)(OOC(C)(C)c1ccccc1)c1ccccc1
Response given: inactive

Challenge: Field: outcome | Entry: Oc1ccc2ccc3cccc4ccc1c2c34
Response given: inactive

Challenge: Field: outcome | Entry: O=C(O)C1C2CCC(O2)C1C(=O)O (stereo not given)
Response given: inactive

Challenge: Field: outcome | Entry: [Cl-].[Cl-].[Hg+2]
Response given: active

Next:
Challenge: Field: outcome | Entry: COC(=O)c1ccccc1N
Response given: inactive

Challenge: Field: outcome | Entry: Cc1ccc(N=C=O)cc1N=C=O
Response given: inactive

Challenge: Field: outcome | Entry: CC(C)N(Cc1ccccc1)C(=O)C(C)(C)C
Response given: inactive

Challenge: Field: outcome | Entry: C[N+](C)(C)CC1CO1 (stereo not given)
Response given: inactive

----------
target_or_test_system: human Matrix Metalloproteinase-3 (MMP3), MMP3 (gene 4314)
test_summary: NVS_ENZ_hMMP3: NovaScreen (NVS) Enzymatic Assay for human Matrix Metalloproteinase-3 (MMP3) (AID 2283185)
Records with an inconclusive call do not appear. Calls of active or inactive are those of the source. How the source made its calls: active means hit-call score of the fitted dose curve at least 0.9, where 1 is the maximum; inconclusive means response in the unintended direction; inactive means score below 0.9.
measured_quantity: AC50

// known answers, use as guide
Challenge: Give AC50 (human Matrix Metalloproteinase-3 (MMP3), MMP3 (gene 4314)) of the following compound: Oc1ccccc1Cl
Response given: inactive

Challenge: Give AC50 (human Matrix Metalloproteinase-3 (MMP3), MMP3 (gene 4314)) of the following compound: Clc1ccc(Cl)c(Cl)c1
Response given: inactive

Challenge: Give AC50 (human Matrix Metalloproteinase-3 (MMP3), MMP3 (gene 4314)) of the following compound: c1ccc2c(c1)-c1cccc3cccc-2c13
Response given: 5.24 µM (active)

Challenge: Give AC50 (human Matrix Metalloproteinase-3 (MMP3), MMP3 (gene 4314)) of the following compound: Cc1ccc(N=C=O)cc1N=C=O
Response given: 40 µM (active)

Challenge: Give AC50 (human Matrix Metalloproteinase-3 (MMP3), MMP3 (gene 4314)) of the following compound: CC(C)(C)C(O)(CCc1ccc(Cl)cc1)Cn1cncn1 (configuration not stated)
Response given: inactive

Challenge: Give AC50 (human Matrix Metalloproteinase-3 (MMP3), MMP3 (gene 4314)) of the following compound: ClCCOCCCl
Response given: inactive

Now examine the next entry.
Challenge: Give AC50 (human Matrix Metalloproteinase-3 (MMP3), MMP3 (gene 4314)) of the following compound: CN(C)C(=O)Nc1ccc(Cl)cc1
Response given: inactive
